TARGET_DESC: ABL2 (Homo sapiens)
Construct: the DNA-tagged SH2 domain concentrations used in this study were <0.1 nM; made in house; host or cells: HEK293 (transient transfection; unpurified extract)
Sequence (P42684 173-263 limits assumed): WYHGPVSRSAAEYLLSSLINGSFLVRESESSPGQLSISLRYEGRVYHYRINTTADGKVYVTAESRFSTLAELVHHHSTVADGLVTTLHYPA
ASSAY_DETAILS: biochemical
Type: binding
RECORDED_CONDITIONS: primary screen, 10 μM; read-out: percent of DMSO vehicle control
Catalogue of molecules with associated remaining activity at 10 µM
# output: bare number, implied unit %

Looking for the measured remaining activity at 10 µM of O=C(CCl)Nc1cccc(CNC(=O)[C@H](Cc2ccc(OP(=O)(O)O)cc2)NC(=O)Cc2ccc(F)cc2)c1 [MN551] , can you help?
94.6

And the next one, C/C(=C\C(=O)N[C@H](C(=O)N1CCC[C@H]1C(=O)N(c1ccccc1)c1ccc(I)cc1)C(C)(C)C)c1ccc(OP(=O)(O)O)cc1 [STAT6-IN-1] ?
98.1

And the next one, CC(C)(C)[C@H](NC(=O)/C=C/c1ccc(OP(=O)(O)O)cc1)C(=O)N1CCC[C@H]1C(=O)N(c1ccccc1)c1ccc(I)cc1 [STAT6-IN-3] ?
108

And the next one, O=C(COc1ccc2cc(C(=O)Nc3ccccc3)ccc2c1)NCc1ccc(OP(=O)(O)O)c(OP(=O)(O)O)c1 [Stafib-1] ?
106

###

TARGET_DESC: GRAP (Homo sapiens)
Construct: the DNA-tagged SH2 domain concentrations used in this study were <0.1 nM; made in house; host or cells: HEK293 (transient transfection; unpurified extract)
Sequence (Q13588 60-154 limits assumed): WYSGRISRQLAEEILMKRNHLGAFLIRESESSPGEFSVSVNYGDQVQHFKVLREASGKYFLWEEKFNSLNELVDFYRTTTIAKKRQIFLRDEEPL
ASSAY_DETAILS: biochemical
Type: binding
RECORDED_CONDITIONS: primary screen, 10 μM; read-out: percent of DMSO vehicle control
Catalogue of compounds with associated remaining activity at 10 µM
# output: bare number, implied unit %

State its remaining activity at 10 µM on GRAP (Homo sapiens): "O=C(COc1ccc2cc(C(=O)Nc3ccccc3)ccc2c1)NCc1ccc(OP(=O)(O)O)c(OP(=O)(O)O)c1"
76.2

And the next one, "C/C(=C\C(=O)N[C@H](C(=O)N1CCC[C@H]1C(=O)N(c1ccccc1)c1ccc(I)cc1)C(C)(C)C)c1ccc(OP(=O)(O)O)cc1" ?
52

And the next one, "CC(C)(C)[C@H](NC(=O)/C=C/c1ccc(OP(=O)(O)O)cc1)C(=O)N1CCC[C@H]1C(=O)N(c1ccccc1)c1ccc(I)cc1" ?
73.5

And the next one, "O=C(CCl)Nc1cccc(CNC(=O)[C@H](Cc2ccc(OP(=O)(O)O)cc2)NC(=O)Cc2ccc(F)cc2)c1" ?
48.7

###

Catalogue of compounds with associated remaining activity at 10 µM
TARGET_DESC: FGR (Homo sapiens, UniProt P09769)
Construct: the DNA-tagged SH2 domain concentrations used in this study were <0.1 nM; made in house; host or cells: HEK293 (transient transfection; unpurified extract)
Sequence (P09769 144-241 limits assumed): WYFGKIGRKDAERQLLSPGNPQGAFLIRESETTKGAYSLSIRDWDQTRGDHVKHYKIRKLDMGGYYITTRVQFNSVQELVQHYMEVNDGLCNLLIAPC
ASSAY_DETAILS: biochemical
Type: binding
RECORDED_CONDITIONS: primary screen, 10 μM; read-out: percent of DMSO vehicle control
Param answer (str): number followed by unit.

# COMPOUND, TARGET_DESC, remaining activity at 10 µM
data = [
    ("O=C(COc1ccc2cc(C(=O)Nc3ccccc3)ccc2c1)NCc1ccc(OP(=O)(O)O)c(OP(=O)(O)O)c1 [Stafib-1]", "FGR (Homo sapiens, UniProt P09769)", "34.3%"),
    ("C/C(=C\\C(=O)N[C@H](C(=O)N1CCC[C@H]1C(=O)N(c1ccccc1)c1ccc(I)cc1)C(C)(C)C)c1ccc(OP(=O)(O)O)cc1 [STAT6-IN-1]", "FGR (Homo sapiens, UniProt P09769)", "20.7%"),
    ("O=C(CCl)Nc1cccc(CNC(=O)[C@H](Cc2ccc(OP(=O)(O)O)cc2)NC(=O)Cc2ccc(F)cc2)c1 [MN551]", "FGR (Homo sapiens, UniProt P09769)", "49.8%"),
]

Lab note: next compound to report on.
Looking for the measured remaining activity at 10 µM of CC(C)(C)[C@H](NC(=O)/C=C/c1ccc(OP(=O)(O)O)cc1)C(=O)N1CCC[C@H]1C(=O)N(c1ccccc1)c1ccc(I)cc1 [STAT6-IN-3] , can you help?
32.1%

From: paper PMC12951562
